tested on: cyclin D1; test: Western blot analysis of cyclin D1 expression in TSPC; format: cell-based, rabbit; settings: TSPC treated 24 h; compared with solvent-treated cells; normalized to β-actin
Listing of recorded induction of the cyclin D1 protein by entry.
measuredParameter: induction of the cyclin D1 protein (fold)

| substance | systemTested | unitDescriptor | valueReported |
| --- | --- | --- | --- |
| 1104A: 29-mer variant with single alanine replacement at isoleucine-104 (SLGAEQRTESIAHRALYYDLISSPDIHGT; UniProt P36955 93-121, looked up, variant I104A) | cyclin D1 | fold | 1.3 |
| SLGAEQRTESIIHRALYYDLISSPDIHGT (listed as Homo sapiens) [29-mer, PEDF-derived short peptide, human PEDF residues 93-121] | cyclin D1 | fold | 2.9 |
| Q98A: 29-mer variant with single alanine replacement at glutamine-98 (SLGAEARTESIIHRALYYDLISSPDIHGT; UniProt P36955 93-121, looked up, variant Q98A) | cyclin D1 | fold | 1.3 |
| 1103A: 29-mer variant with single alanine replacement at isoleucine-103 (SLGAEQRTESAIHRALYYDLISSPDIHGT; UniProt P36955 93-121, looked up, variant I103A) | cyclin D1 | fold | 0.9 |
